Target: T1, LptAm (E. coli), monomeric truncated variant of LptA (E. coli (ATCC 25922))
T1 chain: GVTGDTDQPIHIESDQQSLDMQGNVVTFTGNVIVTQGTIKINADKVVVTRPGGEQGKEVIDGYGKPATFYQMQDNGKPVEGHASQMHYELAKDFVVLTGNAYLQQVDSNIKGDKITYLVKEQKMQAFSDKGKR
Test: FP
Bridges are numbered along the chain shown (N, C = ends). Where no end group is shown, it is not given here.
Endpoint label: Ki (nM)
One number for each entry, in nM.

query: Using known records, supply Ki for KKPVPIIYCNRRTGKCQRM (disulfide 9-16 (inferred)) [peptide 1]
result: 1.1
